Target: NAD-dependent protein deacetylase sirtuin-1 (Homo sapiens)
Assay: Activation of SIRT1 in […] at 1 uM by fluorimetric assay
Format: cell-free
Conditions: HaCaT, TDE = time-dependent effect

[
  {
    "smilesRecord": "Oc1ccc(/C=C/c2cc(O)cc(O)c2)cc1",
    "Activity": "Tde"
  },
  {
    "smilesRecord": "CCOC(=O)C1=CN(Cc2ccccc2)C=C(C(=O)OCC)C1c1ccsc1",
    "Activity": "Tde"
  },
  {
    "smilesRecord": "CCOC(=O)C1=CN(Cc2ccccc2)C=C(C(=O)OCC)C1c1ccco1",
    "Activity": "Tde"
  },
  {
    "smilesRecord": "CCOC(=O)C1=CN(C(=O)c2ccccc2)C=C(C(=O)OCC)C1c1ccccc1",
    "Activity": "Tde"
  }
]

* * *

Molecular target: NAD-dependent protein deacetylase sirtuin-1 (Homo sapiens)
Assay: Activation of full-length GST-tagged recombinant human SIRT1 assessed as enzyme activity obtained with subtraction of intrinsic fluorescence using p53-based untagged peptide as substrate at 50 uM after 30 mins by SIRTainty assay
Values of Activity greater than or equal to 40% map to satisfied; values below map to not satisfied.

[
  {
    "smilesRecord": "NC(=O)C1=CN(Cc2ccccc2)C=C(C(N)=O)C1c1cc2ccccc2s1",
    "assignedLabel": "not satisfied"
  },
  {
    "smilesRecord": "NC(=O)C1=CN(Cc2ccccc2)C=C(C(N)=O)C1c1ccco1",
    "assignedLabel": "satisfied"
  },
  {
    "smilesRecord": "O=C(O)C1=CN(Cc2ccccc2)C=C(C(=O)O)C1c1cccs1",
    "assignedLabel": "not satisfied"
  }
]

Does the compound CCOC(=O)C1=CN(Cc2ccccc2)C=C(C(=O)OCC)C1c1ccc(CN2CCN(C)CC2)cc1 have recorded Activity that is 40% or more?
satisfied

Form field: Activity at least 40%? Entry: NC(=O)C1=CN(Cc2ccccc2)C=C(C(N)=O)C1c1cnc2ccccc2c1
satisfied

* * *

Activity listing for selected compounds.
Target: NAD-dependent protein deacetylase sirtuin-1 (Homo sapiens) (UniProt Q96EB6)
Sequence (Q96EB6 whole entry): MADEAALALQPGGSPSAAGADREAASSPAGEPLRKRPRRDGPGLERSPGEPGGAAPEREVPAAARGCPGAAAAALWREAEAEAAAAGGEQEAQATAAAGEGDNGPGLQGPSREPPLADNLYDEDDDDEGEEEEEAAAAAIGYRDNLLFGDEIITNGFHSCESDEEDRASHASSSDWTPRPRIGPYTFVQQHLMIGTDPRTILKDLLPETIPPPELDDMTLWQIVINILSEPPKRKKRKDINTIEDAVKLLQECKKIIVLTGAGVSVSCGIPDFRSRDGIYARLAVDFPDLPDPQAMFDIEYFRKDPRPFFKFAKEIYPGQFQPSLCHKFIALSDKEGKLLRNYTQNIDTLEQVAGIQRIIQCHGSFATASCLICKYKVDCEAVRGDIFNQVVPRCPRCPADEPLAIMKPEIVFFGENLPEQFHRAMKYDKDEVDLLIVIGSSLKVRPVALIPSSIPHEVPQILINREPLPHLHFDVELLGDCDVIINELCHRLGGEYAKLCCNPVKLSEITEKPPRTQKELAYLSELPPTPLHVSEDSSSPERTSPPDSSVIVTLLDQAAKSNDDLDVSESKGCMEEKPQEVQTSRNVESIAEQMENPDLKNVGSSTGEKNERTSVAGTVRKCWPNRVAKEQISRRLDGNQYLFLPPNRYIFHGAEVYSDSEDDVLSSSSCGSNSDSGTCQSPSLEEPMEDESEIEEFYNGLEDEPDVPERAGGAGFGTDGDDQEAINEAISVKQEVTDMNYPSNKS
Experiment: Activation of full-length GST-tagged recombinant human SIRT1 assessed as enzyme activity obtained without subtraction of intrinsic fluorescence using p53-based untagged peptide as substrate at 50 uM after 30 mins by SIRTainty assay
Express the result in % but write the number alone.

Recorded Activity, per entry:
[
  {
    "compound": "NC(=O)C1=CN(Cc2ccccc2)C=C(C(N)=O)C1c1cncs1",
    "Activity / %": 194
  },
  {
    "compound": "CCOC(=O)C1=CN(Cc2ccccc2)C=C(C(=O)OCC)C1c1cc2ccccc2s1",
    "Activity / %": 139
  },
  {
    "compound": "CCOC(=O)C1=CN(Cc2ccccc2)C=C(C(=O)OCC)C1c1ccc2ccccc2c1",
    "Activity / %": 282
  },
  {
    "compound": "CCOC(=O)C1=CN(S(=O)(=O)c2ccccc2)C=C(C(=O)OCC)C1c1ccccc1",
    "Activity / %": 169
  },
  {
    "compound": "CCOC(=O)C1=C(C)N(Cc2ccccc2)C(C)=C(C(=O)OCC)C1c1ccccc1",
    "Activity / %": 114
  },
  {
    "compound": "CCOC(=O)C1=CN(C(=O)c2ccccc2)C=C(C(=O)OCC)C1c1ccc(C)cc1",
    "Activity / %": 144
  },
  {
    "compound": "CCOC(=O)C1=CN(C(=O)c2ccccc2)C=C(C(=O)OCC)C1c1ccccc1C",
    "Activity / %": 183
  },
  {
    "compound": "CCOC(=O)C1=CN(Cc2ccccc2)C=C(C(=O)OCC)C1c1cccs1",
    "Activity / %": 246
  },
  {
    "compound": "O=C(O)C1=CN(Cc2ccccc2)C=C(C(=O)O)C1c1cnc2ccccc2c1",
    "Activity / %": 209
  },
  {
    "compound": "CCOC(=O)C1=CN(C(=O)c2ccc3ccccc3c2)C=C(C(=O)OCC)C1c1ccccc1",
    "Activity / %": 235
  }
]

What value of Activity on NAD-dependent protein deacetylase sirtuin-1 (Homo sapiens) (UniProt Q96EB6) does NC(=O)C1=CN(Cc2ccccc2)C=C(C(N)=O)C1c1nccs1 have?
231

So what Activity did NC(=O)C1=CN(Cc2ccccc2)C=C(C(N)=O)C1c1ccsc1 get with NAD-dependent protein deacetylase sirtuin-1 (Homo sapiens) (UniProt Q96EB6)?
218

So what Activity did NC(=O)C1=CN(Cc2ccccc2)C=C(C(N)=O)C1c1cc2ccccc2s1 get with NAD-dependent protein deacetylase sirtuin-1 (Homo sapiens) (UniProt Q96EB6)?
127

Observed Activity on NAD-dependent protein deacetylase sirtuin-1 (Homo sapiens) (UniProt Q96EB6) for CCOC(=O)C1=CN(C(=O)c2ccccc2)C=C(C(=O)OCC)C1c1ccc(OC)cc1 , please.
173

What value of Activity on NAD-dependent protein deacetylase sirtuin-1 (Homo sapiens) (UniProt Q96EB6) does CCOC(=O)C1=CN(Cc2ccccc2)C=C(C(=O)O)C1c1ccccc1 (centres undefined) have?
196

Record lookup: for NAD-dependent protein deacetylase sirtuin-1 (Homo sapiens) (UniProt Q96EB6), what Activity belongs to NC(=O)C1=CN(Cc2ccccc2)C=C(C(N)=O)C1c1ccco1 ?
77

Activity of O=C(O)C1=CN(Cc2ccccc2)C=C(C(=O)O)C1c1ccc2ccccc2c1 on NAD-dependent protein deacetylase sirtuin-1 (Homo sapiens) (UniProt Q96EB6)?
116

Lookup: Activity / NAD-dependent protein deacetylase sirtuin-1 (Homo sapiens) (UniProt Q96EB6) / O=C(O)C1=CN(Cc2ccccc2)C=C(C(=O)O)C1c1ccsc1
56

Form field - read-out: Activity; system: NAD-dependent protein deacetylase sirtuin-1 (Homo sapiens) (UniProt Q96EB6); submitted item: NC(=O)C1=CN(Cc2ccccc2)C=C(C(N)=O)C1c1cccc2ccccc12
145

Field: Activity (NAD-dependent protein deacetylase sirtuin-1 (Homo sapiens) (UniProt Q96EB6)). Entry: NC(=O)C1=CN(Cc2ccccc2)C=C(C(N)=O)C1c1ccc2ccccc2c1
128

Item: CCOC(=O)C1=CN(Cc2ccccc2)C=C(C(N)=O)C1c1ccccc1 (centres undefined) Test system: NAD-dependent protein deacetylase sirtuin-1 (Homo sapiens) (UniProt Q96EB6) Read-out: Activity Value: ?
198

* * *

// Activity lookup, one value per entry
Molecular target: NAD-dependent protein deacetylase sirtuin-1 (Homo sapiens) (UniProt Q96EB6)
Assay: Activation of full-length GST-tagged recombinant human SIRT1 assessed as enzyme activity obtained without subtraction of intrinsic fluorescence using p53-based untagged peptide as substrate at 50 uM after 30 mins by SIRTainty assay
Write down the numeric answer in % and omit the unit.

Field: Activity (NAD-dependent protein deacetylase sirtuin-1 (Homo sapiens) (UniProt Q96EB6)). Entry: O=C(O)C1=CN(Cc2ccccc2)C=C(C(=O)O)C1c1nccs1
174

Form entry - test system: NAD-dependent protein deacetylase sirtuin-1 (Homo sapiens) (UniProt Q96EB6); read-out: Activity; compound: CCOC(=O)C1=CN(C(=O)c2cnc3ccccc3n2)C=C(C(=O)OCC)C1c1ccccc1
206

Enter reported Activity observed with NAD-dependent protein deacetylase sirtuin-1 (Homo sapiens) (UniProt Q96EB6) for CCOC(=O)C1=CN(Cc2ccccc2)C=C(C(=O)OCC)C1c1ccccc1
217

GET /values?readout=Activity&system=NAD-dependent protein deacetylase sirtuin-1 (Homo sapiens) (UniProt Q96EB6)&item= CCOC(=O)C1=CN(Cc2ccccc2)C=C(C(=O)OCC)C1c1ccco1
294

Under NAD-dependent protein deacetylase sirtuin-1 (Homo sapiens) (UniProt Q96EB6): Activity value of NC(=O)C1=CN(Cc2ccccc2)C=C(C(N)=O)C1c1cccs1 ?
55

Which Activity is reported with NAD-dependent protein deacetylase sirtuin-1 (Homo sapiens) (UniProt Q96EB6) for this entry: CCOC(=O)C1=CN(C(=O)c2ccccc2)C=C(C(=O)OCC)C1c1ccccc1 ?
244

Missing value: Activity, NAD-dependent protein deacetylase sirtuin-1 (Homo sapiens) (UniProt Q96EB6), entry NC(=O)C1=CN(Cc2ccccc2)C=C(C(=O)O)C1c1ccccc1 (stereo not drawn) . Fill in?
149

Please tell me: Activity of O=C(Nc1ccccc1-c1cn2c(CN3CCNCC3)csc2n1)c1cnc2ccccc2n1 , system NAD-dependent protein deacetylase sirtuin-1 (Homo sapiens) (UniProt Q96EB6)?
209

Requested read-out Activity, target or system NAD-dependent protein deacetylase sirtuin-1 (Homo sapiens) (UniProt Q96EB6), entry CCOC(=O)C1=CN(Cc2ccccc2)C=C(C(=O)OCC)C1c1nccs1
300

What measured Activity is associated with CCOC(=O)C1=CN(Cc2ccccc2)C=C(C(=O)OCC)C1c1cncs1 on NAD-dependent protein deacetylase sirtuin-1 (Homo sapiens) (UniProt Q96EB6)?
221

// fetch NAD-dependent protein deacetylase sirtuin-1 (Homo sapiens) (UniProt Q96EB6) Activity for NC(=O)C1=CN(Cc2ccccc2)C=C(C(N)=O)C1c1cnc2ccccc2c1
197

Lab request: please report Activity under test system NAD-dependent protein deacetylase sirtuin-1 (Homo sapiens) (UniProt Q96EB6) for CCOC(=O)C1=CN(C(=O)c2ccccc2)C=C(C(=O)OCC)C1c1cccc(OC)c1
156

Item NC(=O)C1=CN(Cc2ccccc2)C=C(C(N)=O)C1c1ccc(-c2ccccc2)cc1 with NAD-dependent protein deacetylase sirtuin-1 (Homo sapiens) (UniProt Q96EB6) - Activity?
96

meta.source: ChEMBL document CHEMBL4428023
